Experimental Target: Virulence sensor histidine kinase PhoQ (Salmonella typhimurium (strain LT2 / SGSC1412 / ATCC 700720)) (UniProt P0DM80)
Sequence (P0DM80 whole entry, the tested form may be a part): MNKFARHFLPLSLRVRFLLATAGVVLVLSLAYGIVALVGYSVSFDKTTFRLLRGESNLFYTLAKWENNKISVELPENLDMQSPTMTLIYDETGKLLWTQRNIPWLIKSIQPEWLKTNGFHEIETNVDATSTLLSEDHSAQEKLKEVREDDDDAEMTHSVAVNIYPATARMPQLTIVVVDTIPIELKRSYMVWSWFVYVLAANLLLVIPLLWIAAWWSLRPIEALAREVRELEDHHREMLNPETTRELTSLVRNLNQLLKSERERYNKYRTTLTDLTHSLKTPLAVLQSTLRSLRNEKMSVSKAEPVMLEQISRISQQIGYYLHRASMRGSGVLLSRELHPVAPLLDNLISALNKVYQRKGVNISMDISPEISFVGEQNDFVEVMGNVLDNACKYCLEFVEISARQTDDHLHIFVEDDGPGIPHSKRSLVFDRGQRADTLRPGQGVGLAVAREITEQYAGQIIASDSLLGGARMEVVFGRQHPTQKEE
Test Summary: Inhibition of recombinant Salmonella typhimurium N-terminal His6-SUMO-tagged DHp-catalytic domain PhoQ (257 to 487 residues) autophosphorylation expressed in Escherichia coli BL21(DE3) at 500 uM preincubated for 10 mins followed by [gamma-32P]-ATP addition after 30 mins by phosphotransferase dot blot assay relative to control
Design: scale not given: the % may be the effect or the level left
Condition Description: Salmonella enterica subsp. enterica serovar Typhimurium
Outcome Measure: Activity (%)
Express the result in % but write the number alone.

Please review the entries below; each comes with its answer.
Compound | Activity, %
COc1ccc(-c2c(C)n[nH]c2-c2cc(Cl)c(O)cc2O)cc1 | 66
C[C@@H]1C[C@H]2O[C@@H]2/C=C\C=C\C(=O)Cc2c(Cl)c(O)cc(O)c2C(=O)O1 [RADICICOL] | 86
CCc1cc(-c2n[nH]c(C)c2-c2ccc(OC)cc2)c(O)cc1O | 36
COc1ccc(-c2c[nH]nc2-c2ccc(O)cc2O)cc1 | 87
Cc1n[nH]c(-c2cc(Cl)c(O)cc2O)c1-c1ccccc1 | 45
Cc1[nH]nc(-c2cc(Cl)c(O)cc2O)c1-c1ccc2c(c1)OCCO2 | 35
CCNC(=O)c1noc(-c2cc(C(C)C)c(O)cc2O)c1-c1ccc(CN2CCOCC2)cc1 [LUMINESPIB] | 73
Oc1cc(O)c(-c2[nH]ncc2-c2ccc3c(c2)OCCO3)cc1Cl | 63

Task: What value of Activity has been reported for the following compound? CN(C)c1cc2c(cc1Sc1nc3c(N)nccc3n1CCNCC(C)(C)C)OCO2 [CUDC-305]
Result: 110

Task: Now this one: `Oc1cc(O)c(-c2n[nH]cc2-c2ccccc2)cc1Cl`
Result: 63
